# Tested on: intracellular amastigotes of L. donovani strain MHOM-ET-67/L82
# assay.info: Activity against Leishmania donovani intracellular amastigotes in mouse peritoneal macrophages
# experimental.context: Leishmania donovani, Peritoneal macrophage, in Mus musculus, 96 h, read-out: IC50 L. don. intracell
attribute.measured: IC50

So the reported IC50 for CC(C)CN(C[C@@H](O)[C@H](Cc1ccccc1)NC(=O)O[C@H]1CCOC1)S(=O)(=O)c1ccc(N)cc1 , on intracellular amastigotes of L. donovani strain MHOM-ET-67/L82, turned out to be > 59.3 µM

So the reported IC50 for Cc1ncc([N+](=O)[O-])n1CC(O)CCl (stereo not shown) , on intracellular amastigotes of L. donovani strain MHOM-ET-67/L82, turned out to be > 136 µM

So the reported IC50 for CC(=O)N1CCN(c2ccc(OCC3COC(Cn4ccnc4)(c4ccc(Cl)cc4Cl)O3)cc2)CC1 (stereo not shown) , on intracellular amastigotes of L. donovani strain MHOM-ET-67/L82, turned out to be > 18.8 µM

So the reported IC50 for CCc1nc(N)nc(N)c1-c1ccc(Cl)cc1 , on intracellular amastigotes of L. donovani strain MHOM-ET-67/L82, turned out to be > 12.1 µM

So the reported IC50 for N=C(N)c1ccc(OCCCCCOc2ccc(C(=N)N)cc2)cc1 , on intracellular amastigotes of L. donovani strain MHOM-ET-67/L82, turned out to be 2.63 µM

So the reported IC50 for CC(C)/N=c1\cc2n(-c3ccc(Cl)cc3)c3ccccc3nc-2cc1Nc1ccc(Cl)cc1 , on intracellular amastigotes of L. donovani strain MHOM-ET-67/L82, turned out to be 0.95 µM

So the reported IC50 for Nc1nc(N)c2nc(-c3ccccc3)c(N)nc2n1 , on intracellular amastigotes of L. donovani strain MHOM-ET-67/L82, turned out to be > 11.8 µM

So the reported IC50 for OC(Cn1cncn1)(Cn1cncn1)c1ccc(F)cc1F , on intracellular amastigotes of L. donovani strain MHOM-ET-67/L82, turned out to be > 98 µM

So the reported IC50 for C[C@@H](c1ncncc1F)[C@](O)(Cn1cncn1)c1ccc(F)cc1F , on intracellular amastigotes of L. donovani strain MHOM-ET-67/L82, turned out to be > 85.9 µM

So the reported IC50 for Cc1cn([C@H]2C[C@H](N=[N+]=[N-])[C@@H](CO)O2)c(=O)[nH]c1=O , on intracellular amastigotes of L. donovani strain MHOM-ET-67/L82, turned out to be > 112 µM

So the reported IC50 for CC(C)(C)NC(=O)[C@@H]1CN(Cc2cccnc2)CCN1C[C@@H](O)C[C@@H](Cc1ccccc1)C(=O)N[C@H]1c2ccccc2C[C@H]1O [Indinavir (Sulfate), Indinavir] , on intracellular amastigotes of L. donovani strain MHOM-ET-67/L82, turned out to be > 42.3 µM

So the reported IC50 for Cc1ncc([N+](=O)[O-])n1CCO , on intracellular amastigotes of L. donovani strain MHOM-ET-67/L82, turned out to be > 175 µM

So the reported IC50 for COC(=O)N[C@H](C(=O)N[C@@H](Cc1ccccc1)[C@@H](O)CN(Cc1ccc(-c2ccccn2)cc1)NC(=O)[C@@H](NC(=O)OC)C(C)(C)C)C(C)(C)C [Atazanavir (Sulfate), Atazanavir] , on intracellular amastigotes of L. donovani strain MHOM-ET-67/L82, turned out to be > 37.5 µM

So the reported IC50 for CN/C(=N/CCSCc1nc[nH]c1C)NC#N , on intracellular amastigotes of L. donovani strain MHOM-ET-67/L82, turned out to be > 119 µM

So the reported IC50 for CC(Cc1cccc(C(F)(F)F)c1)NCCOC(=O)c1ccccc1 (stereo not shown) , on intracellular amastigotes of L. donovani strain MHOM-ET-67/L82, turned out to be 54.4 µM

So the reported IC50 for COc1ccc2[nH]c([S+]([O-])Cc3ncc(C)c(OC)c3C)nc2c1 (stereo not shown) , on intracellular amastigotes of L. donovani strain MHOM-ET-67/L82, turned out to be > 86.9 µM
